# testTarget: T1, human CD4 on human PBMCs (human, UniProt P01730 26-458)
# T1 construct: whole, on cells; the CD4-positive gate was set with the control antibodies OKT4 and RPA-T4; also called hCD4
# assay: FACS, clonal hybridoma supernatant on human PBMCs
quantityMeasured: gMFI of CD4+ (gMFI)
// units = gMFI; emit number, no label

input: Please supply the value of reported gMFI of CD4+ for the item 75110_14P08A (antibody, V domains shown, Tested as clonal hybridoma supernatant from AlivaMab Mouse Kappa mice: human variable regions, human kappa, mouse Fc) VH: QVQLQESGPGLVKSSETLSLTCTDSGDSIRSYYWNWIRQPAGKGLEWIGRIYASGSTNYNPSLKSRVIMSADTSKNRFSLKLSSVTAADTAVYYCARDGGVGDSLDYWGQGTLVTVSS VL: DIVMTQTPLSLPVTPGEPASISCRSSQSLLDSDDGNTYLDWYLQKPGQSPQLLIYTLSYRASGVPDRFSGSGSGTDFTLKISRVEAEDVGVYYCMQRIEFPFTFGPGTKVDIK
output: 58500

input: Please supply the value of reported gMFI of CD4+ for the item 75110_13C13A (antibody, V domains shown, Tested as clonal hybridoma supernatant from AlivaMab Mouse Kappa mice: human variable regions, human kappa, mouse Fc) VH: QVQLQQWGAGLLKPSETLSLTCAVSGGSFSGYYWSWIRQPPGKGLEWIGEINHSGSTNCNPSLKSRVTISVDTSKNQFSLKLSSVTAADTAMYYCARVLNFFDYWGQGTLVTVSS VL: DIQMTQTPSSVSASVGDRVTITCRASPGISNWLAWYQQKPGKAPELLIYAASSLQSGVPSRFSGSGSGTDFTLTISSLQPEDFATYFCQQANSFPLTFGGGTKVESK
output: 123000

input: Please supply the value of reported gMFI of CD4+ for the item 75110_12H19A (antibody, V domains shown, Tested as clonal hybridoma supernatant from AlivaMab Mouse Kappa mice: human variable regions, human kappa, mouse Fc) VH: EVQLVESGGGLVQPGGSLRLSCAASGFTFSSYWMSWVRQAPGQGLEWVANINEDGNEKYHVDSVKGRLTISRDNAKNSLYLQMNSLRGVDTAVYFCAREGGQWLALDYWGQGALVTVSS VL: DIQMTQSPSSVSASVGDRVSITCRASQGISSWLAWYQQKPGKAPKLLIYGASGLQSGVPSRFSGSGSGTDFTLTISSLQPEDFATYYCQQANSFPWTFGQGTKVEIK
output: 284000

input: Please supply the value of reported gMFI of CD4+ for the item 75110_10O16A (antibody, V domains shown, Tested as clonal hybridoma supernatant from AlivaMab Mouse Kappa mice: human variable regions, human kappa, mouse Fc (detected with anti-mouse Fc gamma); also called 75110_10016A) VH: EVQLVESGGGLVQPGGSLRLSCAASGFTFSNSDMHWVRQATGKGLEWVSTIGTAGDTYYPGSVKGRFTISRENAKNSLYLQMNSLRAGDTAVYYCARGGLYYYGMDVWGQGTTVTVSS VL: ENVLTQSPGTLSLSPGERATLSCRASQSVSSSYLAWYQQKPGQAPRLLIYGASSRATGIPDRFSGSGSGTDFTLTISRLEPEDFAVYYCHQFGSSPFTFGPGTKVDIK
output: 133000

input: Please supply the value of reported gMFI of CD4+ for the item 75110_12C19A (antibody, V domains shown, Tested as clonal hybridoma supernatant from AlivaMab Mouse Kappa mice: human variable regions, human kappa, mouse Fc) VH: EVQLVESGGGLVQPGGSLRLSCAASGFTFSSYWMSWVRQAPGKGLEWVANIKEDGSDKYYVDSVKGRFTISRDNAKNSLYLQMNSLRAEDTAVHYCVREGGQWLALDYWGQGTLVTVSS VL: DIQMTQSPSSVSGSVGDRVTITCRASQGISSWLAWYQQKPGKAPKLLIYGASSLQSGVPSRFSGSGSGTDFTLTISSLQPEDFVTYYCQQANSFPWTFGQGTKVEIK
output: 56500

input: Please supply the value of reported gMFI of CD4+ for the item 75110_14I16A (antibody, V domains shown, Tested as clonal hybridoma supernatant from AlivaMab Mouse Kappa mice: human variable regions, human kappa, mouse Fc; also called 75110_14116A) VH: QVQLQESGPGLVKPSETLSLTCTVSNGSISSYYWSWIRQSAGKGLEWIGRIYTSGSTNYNPSLKSRVTMLVDTSKNQFSLKLSSVTAADTAVYYCARDREDYYYYGMDVWGQGTTVTVSS VL: DIQMTQSPSSLSASVGDRVTITCQASHDISNYLNWYQQKPGKAPKLLLYYASNLETGVPSRFSGSGSGTDFTFTITSLQPEDIGTYSCQQYDNLPLTFGGGTKVEIK
output: 298000

input: Please supply the value of reported gMFI of CD4+ for the item 75110_12H17A (antibody, V domains shown, Tested as clonal hybridoma supernatant from AlivaMab Mouse Kappa mice: human variable regions, human kappa, mouse Fc) VH: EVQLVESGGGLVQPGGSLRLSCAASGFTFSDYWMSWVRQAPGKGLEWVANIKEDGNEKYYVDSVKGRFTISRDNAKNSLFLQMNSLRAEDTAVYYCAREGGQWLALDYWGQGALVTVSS VL: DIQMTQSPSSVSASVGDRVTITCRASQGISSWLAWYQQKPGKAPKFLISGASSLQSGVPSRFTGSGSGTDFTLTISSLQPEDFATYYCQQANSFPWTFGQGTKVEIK
output: 197000

input: Please supply the value of reported gMFI of CD4+ for the item 75110_14N19A (antibody, V domains shown, Tested as clonal hybridoma supernatant from AlivaMab Mouse Kappa mice: human variable regions, human kappa, mouse Fc) VH: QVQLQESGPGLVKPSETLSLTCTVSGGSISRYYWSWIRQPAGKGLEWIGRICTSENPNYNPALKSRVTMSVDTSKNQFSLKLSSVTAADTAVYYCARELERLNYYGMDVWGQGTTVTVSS VL: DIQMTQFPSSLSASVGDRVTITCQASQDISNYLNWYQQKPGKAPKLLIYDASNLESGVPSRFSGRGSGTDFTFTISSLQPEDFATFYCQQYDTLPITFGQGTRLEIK
output: 265000

input: Please supply the value of reported gMFI of CD4+ for the item 75110_13P22A (antibody, V domains shown, Tested as clonal hybridoma supernatant from AlivaMab Mouse Kappa mice: human variable regions, human kappa, mouse Fc) VH: QVQLQQWGAGLLKPSETLSLTCAAYGGSFSGYYWSWIRQSPGKGLEWIGEINQSGNTNYNPSLKSRVTISADTSKNQFSLKLSSVTAADTAVYYCARVLNWFDYWGQGILVTVSS VL: DIQMTQSPSSVSASVGDRVTITCRASQGISDWLAWYQQKSGKAPDLLIFAASSLQSGVPSRFSGSGSGTDFTLTISSLQPEDFATYYCQQANSFPYTFGQGTKLEIK
output: 185000

input: Please supply the value of reported gMFI of CD4+ for the item 75110_11D03A (antibody, V domains shown, Tested as clonal hybridoma supernatant from AlivaMab Mouse Kappa mice: human variable regions, human kappa, mouse Fc) VH: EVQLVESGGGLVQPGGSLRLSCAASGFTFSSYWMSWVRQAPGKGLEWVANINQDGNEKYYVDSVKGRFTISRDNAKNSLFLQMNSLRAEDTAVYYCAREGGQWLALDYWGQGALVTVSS VL: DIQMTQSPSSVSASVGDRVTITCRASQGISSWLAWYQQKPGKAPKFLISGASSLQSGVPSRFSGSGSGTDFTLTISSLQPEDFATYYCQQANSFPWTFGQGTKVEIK
output: 217000

input: Please supply the value of reported gMFI of CD4+ for the item 75110_13P21A (antibody, V domains shown, Tested as clonal hybridoma supernatant from AlivaMab Mouse Kappa mice: human variable regions, human kappa, mouse Fc) VH: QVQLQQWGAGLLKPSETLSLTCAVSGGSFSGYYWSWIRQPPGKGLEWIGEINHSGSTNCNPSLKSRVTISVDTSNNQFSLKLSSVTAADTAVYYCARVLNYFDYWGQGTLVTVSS VL: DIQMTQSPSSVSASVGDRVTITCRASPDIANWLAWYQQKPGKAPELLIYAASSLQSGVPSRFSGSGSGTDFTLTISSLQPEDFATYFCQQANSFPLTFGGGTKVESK
output: 31800
